Tested on: S.e. (clin. isolate Motol)
Type: cell-based, Staphylococcus epidermidis
Settings: 37° C for 20 h
Peptide text beside a SMILES is read from it.
observable: Antimicrobial activity MIC

CC[C@H](C)[C@H](NC(=O)[C@H](CCCCN)NC(=O)[C@H](CCCCN)NC(=O)[C@H](CC(C)C)NC(=O)[C@H](CC(C)C)NC(=O)[C@H](CCCCN)NC(=O)[C@@H](NC(=O)[C@H](Cc1c[nH]c2ccccc12)NC(=O)[C@H](CCCCN)NC(=O)CN)C(C)C)C(=O)N[C@@H](CC(C)C)C(=O)N[C@@H](CCCCN)C(N)=O [Peptide VIII] (H-GKWVKLLKKILK-NH2) : 2,5 µmol.l^-1

Could you now look at the following compound, please?
q: // lookup Antimicrobial activity MIC | system=S.e. (clin. isolate Motol) | key= CC[C@H](C)[C@H](NC(=O)[C@H](CCCCN)NC(=O)[C@H](CCCCN)NC(=O)[C@H](CC(C)C)NC(=O)[C@H](CC(C)C)NC(=O)[C@H](CCCCN)NC(=O)[C@H](CC(C)C)NC(=O)[C@H](Cc1c[nH]c2ccccc12)NC(=O)[C@H](CCCCN)NC(=O)CN)C(=O)N[C@@H](CC(C)C)C(=O)N[C@@H](CCCCN)C(N)=O [Peptide VII] (H-GKWLKLLKKILK-NH2)
a: 2,2 µmol.l^-1

----------
Test system: Bacillus subtilis
Type: cell-based
Conditions: B.s.; 37° C for 20 h
Square brackets hold non-standard residues; d marks the D form. Peptide text beside a SMILES is read from it. Met(O) = CS(=O)CC[C@H](N)C(=O)O
observable: Antimicrobial activity MIC

These solved cases illustrate the format of a correct answer.
CC[C@H](C)[C@H](NC(=O)[C@H](CCCCN)NC(=O)[C@H](CCCCN)NC(=O)[C@H](CC(C)C)NC(=O)[C@H](CC(C)C)NC(=O)[C@H](CCCCN)NC(=O)[C@H](CC[S+](C)[O-])NC(=O)[C@H](Cc1c[nH]c2ccccc12)NC(=O)[C@H](CCCCN)NC(=O)CN)C(=O)N[C@@H](CC(C)C)C(=O)N[C@@H](CCCCN)C(N)=O (stereo partly shown) [XII] (H-GKW[Met(O)]KLLKKILK-NH2) : 2,5 µmol.l^-1
CC[C@H](C)[C@H](NC(=O)[C@H](CCCCN)NC(=O)[C@H](CCCCN)NC(=O)[C@H](CC(C)C)NC(=O)[C@H](CC(C)C)NC(=O)[C@H](CCCCN)NC(=O)[C@H](CCCCN)NC(=O)[C@H](Cc1c[nH]c2ccccc12)NC(=O)[C@H](CCCCN)NC(=O)CN)C(=O)N[C@@H](CC(C)C)C(=O)N[C@@H](CCCCN)C(N)=O [X] (H-GKWKKLLKKILK-NH2) : 2,4 µmol.l^-1
CC[C@H](C)[C@H](NC(=O)[C@H](CCCCN)NC(=O)[C@H](CCCCN)NC(=O)[C@H](CC(C)C)NC(=O)[C@H](CC(C)C)NC(=O)[C@H](CCCCN)NC(=O)[C@H](CCSC)NC(=O)[C@H](Cc1c[nH]c2ccccc12)NC(=O)[C@@H](N)CCCCN)C(=O)N[C@@H](CC(C)C)C(=O)N[C@@H](CCCCN)C(N)=O [I] (H-KWMKLLKKILK-NH2) : 2,3 µmol.l^-1

Could you now look at the following compound, please?
q: // lookup Antimicrobial activity MIC | system=Bacillus subtilis | key= CC[C@@H](C)[C@@H](NC(=O)[C@@H](CCCCN)NC(=O)[C@@H](CCCCN)NC(=O)[C@@H](CC(C)C)NC(=O)[C@@H](CC(C)C)NC(=O)[C@@H](CCCCN)NC(=O)[C@@H](CCSC)NC(=O)[C@@H](Cc1c[nH]c2ccccc12)NC(=O)[C@@H](CCCCN)NC(=O)CN)C(=O)N[C@H](CC(C)C)C(=O)N[C@H](CCCCN)C(N)=O [IV]
a: 1,4 µmol.l^-1

Origin of measurements: patent EP3570868B1
